Parameter: T/C. Scope: all listed entries.
system: MDA-MB-231; assay: Inhibition of hormone-independent MDA-MB 231 mammary tumor cell proliferation at 1*10e-5 M; type: functional, Homo sapiens

| compound | systemName | T/C [%] |
| --- | --- | --- |
| CCC1Cc2cc(OC(C)=O)ccc2-c2c(C=O)c3cc(OC(C)=O)ccc3n21 (stereo not given) | MDA-MB-231 | 52 |
| CCCCC1Cc2cc(OC(C)=O)ccc2-c2c(C=O)c3ccc(OC(C)=O)cc3n21 (stereo not given) | MDA-MB-231 | 16 |
| CC(=O)Oc1ccc2c(c1)CC(C)n1c-2c(C=O)c2ccc(OC(C)=O)cc21 (stereo not given) | MDA-MB-231 | 45 |
| CCCCCC1Cc2cc(OC(C)=O)ccc2-c2c(C=O)c3cc(OC(C)=O)ccc3n21 (stereo not given) | MDA-MB-231 | 47 |
| CCCC1Cc2cc(OC(C)=O)ccc2-c2c(C=O)c3cc(OC(C)=O)ccc3n21 (stereo not given) | MDA-MB-231 | 9 |
| CCCC1Cc2cc(OC(C)=O)ccc2-c2c(C=O)c3ccc(OC(C)=O)cc3n21 (stereo not given) | MDA-MB-231 | 14 |
| CCC1Cc2cc(OC(C)=O)ccc2-c2c(C=O)c3ccc(OC(C)=O)cc3n21 (stereo not given) | MDA-MB-231 | 10 |
| CCCCC1Cc2cc(OC(C)=O)ccc2-c2c(C=O)c3cc(OC(C)=O)ccc3n21 (stereo not given) | MDA-MB-231 | 12 |
| CCCCCC1Cc2cc(OC(C)=O)ccc2-c2c(C=O)c3ccc(OC(C)=O)cc3n21 (stereo not given) | MDA-MB-231 | 27 |
| CC(=O)Oc1ccc2c(c1)CC(C)n1c-2c(C=O)c2cc(OC(C)=O)ccc21 (stereo not given) | MDA-MB-231 | 61 |
